The values you see were collected from ChEMBL document CHEMBL1133410.

system name: Mu-type opioid receptor (Bos taurus, UniProt P79350)
Sequence (P79350 whole entry): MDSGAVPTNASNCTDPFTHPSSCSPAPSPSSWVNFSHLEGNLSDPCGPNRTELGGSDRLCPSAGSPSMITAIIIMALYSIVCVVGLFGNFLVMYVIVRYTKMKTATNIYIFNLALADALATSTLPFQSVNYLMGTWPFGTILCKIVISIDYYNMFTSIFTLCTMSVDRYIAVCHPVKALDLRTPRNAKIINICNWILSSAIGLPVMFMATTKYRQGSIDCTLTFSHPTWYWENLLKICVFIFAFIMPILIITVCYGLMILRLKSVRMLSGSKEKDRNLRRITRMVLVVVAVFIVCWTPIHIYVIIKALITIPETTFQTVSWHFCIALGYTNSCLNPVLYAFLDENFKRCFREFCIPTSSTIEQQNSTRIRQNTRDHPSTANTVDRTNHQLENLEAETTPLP
test protocol: Binding affinity against Opioid receptor mu 1 of calf cortex using […] as radioligand
pKi: −log10 of the molar value. Counter-ions that a name gives are not always drawn.

>  <compound>
COCCC1CC2CN3CCc4c([nH]c5ccccc45)C(C(=O)OC)(C2)C13 (stereo in doubt; (-)) [ZOLUNICANT HYDROCHLORIDE]

>  <pKi>
4.89

$$$$
>  <compound>
COCCC1CC2CN3CCc4c([nH]c5ccccc45)C(C(=O)OC)(C2)C13 (stereo in doubt; (+)) [ZOLUNICANT HYDROCHLORIDE]

>  <pKi>
6.13

$$$$
>  <compound>
COCCC1CC2CN3CCc4c([nH]c5ccccc45)C(C(=O)OC)(C2)C13 (racemic) [ZOLUNICANT HYDROCHLORIDE]

>  <pKi>
5.96

$$$$
